Listing of entries alongside the reported SARS-CoV-2 infection rate.
- Test system: A549-ACE2 infected with SARS-CoV-2
- TEST PROTOCOL: SARS-CoV-2 infection rate relative to DMSO; higher = more infection
- MEASUREMENT PARAMETERS: 3 µM; 24 h
Please answer using the number first and the unit second.

* CC(=O)O[C@@H]1C[C@H]2C(C)(C)C(=O)C=C[C@]2(C)[C@H]2CC[C@@]3(C)[C@H](c4ccoc4)OC(=O)[C@H]4O[C@]43[C@@]21C | 95%

Would you kindly share the measured SARS-CoV-2 infection rate for C[C@@H]1CN(CCCn2c3ccccc3c3ccccc32)C[C@H](C)N1 ? 43%

* * *

Listing of entries alongside the reported cell viability.
- System: U2OS
- TEST PROTOCOL: cell viability relative to DMSO; higher = less toxic
- MEASUREMENT PARAMETERS: 72 h; 10000 nM
Please give a number only; it is taken to be in %.

• CCN(CC)C(=O)Nc1ccc(OCC(O)CNC(C)(C)C)c(C(C)=O)c1 (stereo unspecified) = 95.3
• CC(C)c1ccc(NC(=O)c2cccs2)c(-c2nc3ccccc3[nH]c2=O)c1 = 98.3
• CN(C)CC/C=C1/c2ccccc2Sc2ccc(Cl)cc21 = 100
• CCOc1cn(-c2ccc(F)cc2C)nc1C(=O)Nc1ccc(Oc2ccnc3cc(OC)c(OC)cc23)c(F)c1 = 83.1
• C[C@@H]1[C@H](O)[C@@H](C)/C=C/C=C/C=C/C=C/C=C/C=C/C=C/[C@H](O[C@@H]2O[C@H](C)[C@@H](O)[C@H](N)[C@@H]2O)C[C@@H]2O[C@](O)(C[C@@H](O)C[C@@H](O)[C@H](O)CC[C@@H](O)C[C@@H](O)CC(=O)O[C@H]1C)C[C@H](O)[C@H]2C(=O)O = 101
• Nc1ncnc2c1C(=O)N(c1ccc([C@H]3CC[C@H](CC(=O)O)CC3)cc1)CCO2 = 97.5

Would you kindly share the measured cell viability for Cc1cc2c(C(C)C)c(O)c(O)c(C=O)c2c(O)c1-c1c(C)cc2c(C(C)C)c(O)c(O)c(C=O)c2c1O ? 11.9

* * *

- Test system: U2OS
- TEST PROTOCOL: cell viability relative to DMSO; higher = less toxic
- MEASUREMENT PARAMETERS: 72 h; 1 nM
REPORTED ENDPOINT: cell viability

Look over these answered cases.
* Oc1ccc(Cl)cc1Cc1cc(Cl)ccc1O [dichlorophen] | 101%
* CCNC(=O)[C@@H]1CCCN1C(=O)[C@H](CCCNC(=N)N)NC(=O)[C@H](CC(C)C)NC(=O)[C@@H](CC(C)C)NC(=O)[C@H](Cc1ccc(O)cc1)NC(=O)[C@H](CO)NC(=O)[C@H](Cc1c[nH]c2ccccc12)NC(=O)[C@H](Cc1c[nH]cn1)NC(=O)[C@@H]1CCC(=O)N1 [leuprolide] | 92.6%
* N[C@@H]1c2cccnc2[C@H](OC(=O)N2CCC(n3c(=O)[nH]c4ncccc43)CC2)CC[C@H]1c1cccc(F)c1F [rimegepant] | 102%
* O=C1NC(c2cccc([N+](=O)[O-])c2)=CCN1c1ccccc1O [icilin] | 95.5%

// next entry
Would you kindly share the measured cell viability for CCCN1CCCC[C@H]1C(=O)Nc1c(C)cccc1C [ropivacaine] ? 96.6%

* * *

- Tested on: Vero E6
- TEST PROTOCOL: cell viability relative to DMSO; higher = less toxic
- MEASUREMENT PARAMETERS: 72 h; 1 nM
Listing of entries alongside the reported cell viability.
Please give a number only; it is taken to be in %.

• Cn1c2cc([S+](C)[O-])sc2c2cnn(Cc3cccc(N)c3)c(=O)c21 (stereo not drawn) = 103
• Cc1sc(C)c2c1CCC=C2c1c[nH]cn1 = 103
• Sc1ncnc2nc[nH]c12 = 103
• CC(C)=CCC/C(C)=C/CC/C(C)=C/CSc1ccccc1C(=O)O = 95.8
• O=C1NC(c2cccc([N+](=O)[O-])c2)=CCN1c1ccccc1O = 91.9
• CCN1CCN(C(=O)Cc2ccc(Nc3ncc(F)c(Nc4ccc(C(=O)Nc5ccccc5Cl)cc4)n3)cc2)CC1 = 97
• O=C(/C=C/c1ccc(O)c(O)c1)O[C@H](Cc1ccc(O)c(O)c1)C(=O)O = 102
• N[C@H]1C(O)O[C@H](CO)[C@@H](O)[C@@H]1O (mixture of isomers) = 108

Would you kindly share the measured cell viability for O=C(CSc1nc2c(c(=O)n1-c1ccccc1)SCC2)Nc1ccc(-c2ccccc2)cn1 ? 97

Would you kindly share the measured cell viability for CC(C)NCC(O)COc1cccc2[nH]c3ccccc3c12 (stereo not drawn) ? 98

Would you kindly share the measured cell viability for CCCCOc1ccc(CC/C=C2\SC(=O)N(CCN)C2=O)cc1 ? 108

* * *

- System: Calu-3
- TEST PROTOCOL: cell viability relative to DMSO; higher = less toxic
- MEASUREMENT PARAMETERS: 72 h; 10 nM
Listing of entries alongside the reported cell viability.
Please give a number only; it is taken to be in %.

* COc1ccc(C2=N[C@@H](c3ccc(Cl)cc3)[C@@H](c3ccc(Cl)cc3)N2C(=O)N2CCNC(=O)C2)c(OC(C)C)c1 | 98.1

Would you kindly share the measured cell viability for CCN(CC)C(=O)Nc1ccc(OCC(O)CNC(C)(C)C)c(C(C)=O)c1 (configuration not stated) ? 104

Would you kindly share the measured cell viability for Cc1cc(-c2ncc(CC(=O)Nc3ccc(-c4cnccn4)cn3)cc2C)ccn1 ? 97

Would you kindly share the measured cell viability for C[C@@H]1CN(CCCn2c3ccccc3c3ccccc32)C[C@H](C)N1 ? 88.6

Would you kindly share the measured cell viability for Nc1ccc2ncnc(NCCc3ccc(Oc4ccccc4)cc3)c2c1 ? 98.9

Would you kindly share the measured cell viability for O=C(Nc1cccnc1)N1CCC(Cc2cccc(Oc3ccc(C(F)(F)F)cn3)c2)CC1 ? 105

Would you kindly share the measured cell viability for CCCCCCCCCCCCCCCC(=O)OC(C)C [isopropyl-palmitate] ? 96.6

Would you kindly share the measured cell viability for COc1ccc(C2CC(c3ccccc3)=NN2c2ccc(S(N)(=O)=O)cc2)cc1 (configuration not stated) ? 105

* * *

- Test system: Vero E6
- TEST PROTOCOL: cell viability relative to DMSO; higher = less toxic
- MEASUREMENT PARAMETERS: 72 h; 100 nM
REPORTED ENDPOINT: cell viability (%)
Please give a number only; it is taken to be in %.

• CC1=NN(c2ccc(C(=O)O)cc2)C(=O)C1=Cc1ccc(-c2cc(C)c(C)cc2[N+](=O)[O-])o1 = 100
• CCCCC#Cc1nc(NC)c2ncn([C@@H]3O[C@H](CO)[C@@H](O)[C@H]3O)c2n1 = 105
• CCN(CC)C(C)C(=O)c1ccccc1 (stereo unspecified) = 106
• CCCC(C)(COC(N)=O)COC(=O)NC(C)C (stereo unspecified) = 98.8
• O=C(Nc1cccnc1)N1CCC(Cc2cccc(Oc3ccc(C(F)(F)F)cn3)c2)CC1 = 89.9
• CC(O)Cn1cnc2c1c(=O)n(C)c(=O)n2C (stereo unspecified) = 87
• COc1cc2c(cc1OC)-c1cc3nc4ccccc4nc3n1C(C)(C)C2 = 104
• COc1cccc2c1C(=O)c1c(O)c3c(c(O)c1C2=O)C[C@@](O)(C(=O)CO)C[C@@H]3O[C@H]1C[C@H](N)[C@H](O[C@@H]2CCCCO2)[C@H](C)O1 = 96.7

Would you kindly share the measured cell viability for CCCn1c(=O)[nH]c2nc(-c3ccc(S(=O)(=O)O)cc3)[nH]c2c1=O ? 107

Would you kindly share the measured cell viability for N[C@]1(C(=O)O)CC[C@@H](C(=O)O)C1 [cis-ACPD] ? 99.4

Would you kindly share the measured cell viability for N[C@@H](C(=O)O)c1cc(O)ccc1Cl ? 92.2

Would you kindly share the measured cell viability for COc1cc2c(cc1OC)-c1c(C)c3ccc(OC)c(OC)c3c[n+]1CC2 [dehydrocorydaline] ? 99.6

Would you kindly share the measured cell viability for O=S1(=O)OC(c2ccc(O)cc2)(c2ccc(O)cc2)c2ccccc21 ? 100

Would you kindly share the measured cell viability for Sc1ncnc2nc[nH]c12 ? 99.5

Would you kindly share the measured cell viability for CS(=O)(=O)c1ccc(-c2cn3ccccc3n2)cc1 ? 105

Would you kindly share the measured cell viability for N#Cc1cc(-c2n[nH]c(-c3ccncc3)n2)ccn1 ? 101

Would you kindly share the measured cell viability for COc1cc(N2CCC(N3CCN(C)CC3)CC2)ccc1Nc1ncc(Cl)c(Nc2ccccc2P(C)(C)=O)n1 ? 101

Would you kindly share the measured cell viability for NCc1cc(O)no1 ? 93.1

Would you kindly share the measured cell viability for O=C(O)c1cc(O)c2c3nc4ccccc4oc-3cc(=O)c2n1 ? 96.6

Would you kindly share the measured cell viability for Cc1cc(-c2ncc(CC(=O)Nc3ccc(-c4cnccn4)cn3)cc2C)ccn1 ? 90.7

Would you kindly share the measured cell viability for CC(=O)NS(=O)(=O)c1ccc(NC(=O)c2ccccc2C(=O)O)cc1 [phthalylsulfacetamide] ? 98.2
